System: Trichoderma virens ATCC 9645
assay.explanation: growth yield (OD600) with compound + IPBC relative to untreated control; higher = less growth inhibition
settings: compound concentration: 100 uM; IPBC concentration: 200 ng/ml; 40 h
Out of some 1,300 compounds screened, about 130 (10%) showed an effect of 50% or more. Many of the other results were omitted from the sample, so strong results are more common in it than they were.
reported.metric: growth yield (%)
A number alone suffices; assume %.

INSERT INTO results (compound, units, reported_measurement) VALUES
  ('C[C@@H](O[C@H]1OCCN(Cc2n[nH]c(=O)[nH]2)[C@H]1c1ccc(F)cc1)c1cc(C(F)(F)F)cc(C(F)(F)F)c1 [Aprepitant] + CCCCNC(=O)OCC#CI [3-iodo-2-propynyl butylcarbamate (IPBC)]', '%', 113);

Recall the recorded growth yield for CCN[C@H]1CN(CCCOC)S(=O)(=O)c2sc(S(N)(=O)=O)cc21 [Brinzolamide] + CCCCNC(=O)OCC#CI [3-iodo-2-propynyl butylcarbamate (IPBC)] with Trichoderma virens ATCC 9645 and state it. 76.1

Then this compound: O=C1Nc2ccc(Cl)cc2[C@@](C#CC2CC2)(C(F)(F)F)O1 [Efavirenz] + CCCCNC(=O)OCC#CI [3-iodo-2-propynyl butylcarbamate (IPBC)] 39.4

----------
System: Trichoderma virens ATCC 9645
assay.explanation: growth yield (OD600) with compound + IPBC relative to untreated control; higher = less growth inhibition
settings: compound concentration: 100 uM; IPBC concentration: 200 ng/ml; 40 h
Structures can show the parent of a compound that is named as a salt. The campaign covered roughly 1,300 compounds. About 130 (10%) showed an effect of 50% or more. The list comes from a sample in which strong results are over-represented; it also holds close analogues and randomly drawn compounds.
reported.metric: growth yield (%)
A number alone suffices; assume %.

Sample records with growth yield:
INSERT INTO results (compound, reported_measurement) VALUES
  ('CC(C)(CO)C(O)C(=O)NCCCO (stereo unspecified) [Panthenol (D)] + CCCCNC(=O)OCC#CI [3-iodo-2-propynyl butylcarbamate (IPBC)]', 87.2),
  ('COCCOC(=O)C1=C(C)NC(C)=C(C(=O)OC(C)C)C1c1cccc([N+](=O)[O-])c1 (stereo unspecified) [Nimodipine] + CCCCNC(=O)OCC#CI [3-iodo-2-propynyl butylcarbamate (IPBC)]', 79.7),
  ('C=CCN1CCCC1CNC(=O)c1cc2nn[nH]c2cc1OC (stereo unspecified) [Alizapride hydrochloride] + CCCCNC(=O)OCC#CI [3-iodo-2-propynyl butylcarbamate (IPBC)]', 112),
  ('O=C1CCc2ccc(OCCCCN3CCN(c4cccc(Cl)c4Cl)CC3)cc2N1 [Aripiprazole] + CCCCNC(=O)OCC#CI [3-iodo-2-propynyl butylcarbamate (IPBC)]', 81.8),
  ('CCOC(=O)N1CCC(=C2c3ccc(Cl)cc3CCc3cccnc32)CC1 [Loratadine] + CCCCNC(=O)OCC#CI [3-iodo-2-propynyl butylcarbamate (IPBC)]', 17.3),
  ('C[C@]1(Cn2ccnn2)[C@H](C(=O)O)N2C(=O)C[C@H]2S1(=O)=O [Tazobactam] + CCCCNC(=O)OCC#CI [3-iodo-2-propynyl butylcarbamate (IPBC)]', 84.5),
  ('O=C(O)c1cc(-c2ccc(F)cc2F)ccc1O [Diflunisal] + CCCCNC(=O)OCC#CI [3-iodo-2-propynyl butylcarbamate (IPBC)]', 57.8),
  ('CCOC(=O)C1=C(C)NC(C)=C(C(=O)OC)C1c1cccc(Cl)c1Cl (stereo unspecified) [Felodipine] + CCCCNC(=O)OCC#CI [3-iodo-2-propynyl butylcarbamate (IPBC)]', 77.5);

Look up growth yield: C[C@]12C=CC(=O)C=C1CC[C@H]1[C@@H]3C[C@@H](O)[C@](O)(C(=O)CO)[C@@]3(C)C[C@H](O)[C@@]12F [Triamcinolone] + CCCCNC(=O)OCC#CI [3-iodo-2-propynyl butylcarbamate (IPBC)] 98.3

Then this compound: C1CCC(C(CC2CCCCN2)C2CCCCC2)CC1 (stereo unspecified) [Perhexiline maleate] + CCCCNC(=O)OCC#CI [3-iodo-2-propynyl butylcarbamate (IPBC)] 41

Then this compound: CC(=O)Nc1ccc(O)cc1 [Acetaminophen] + CCCCNC(=O)OCC#CI [3-iodo-2-propynyl butylcarbamate (IPBC)] 105

Then this compound: Cc1cccc(Nc2ccncc2S(=O)(=O)NC(=O)NC(C)C)c1 [Torsemide] + CCCCNC(=O)OCC#CI [3-iodo-2-propynyl butylcarbamate (IPBC)] 95.3

Then this compound: C[C@]12CCC(=O)C(O)=C1CC[C@@H]1[C@@H]2CC[C@]2(C)C(=O)CC[C@@H]12 [Formestane] + CCCCNC(=O)OCC#CI [3-iodo-2-propynyl butylcarbamate (IPBC)] 71.5

Then this compound: CC(C)OC(=O)C(C)(C)Oc1ccc(C(=O)c2ccc(Cl)cc2)cc1 [Fenofibrate] + CCCCNC(=O)OCC#CI [3-iodo-2-propynyl butylcarbamate (IPBC)] 65.4

Then this compound: N=C(N)NCCN1CCCCCCC1 [Guanethidine sulfate] + CCCCNC(=O)OCC#CI [3-iodo-2-propynyl butylcarbamate (IPBC)] 81.3
